Task for the reader: assign each of the following compounds its reported % Di-prodrug at time (h).
# assay-comment: Plasma stability of cannabidiol prodrugs (bioconversion to parent drug)
# Format: in vitro ADME
# experimental-conditions: Table 20; di-prodrug in plasma; 1 h

Task item: // % Di-prodrug at time (h) lookup, key: C=C(C)[C@@H]1CCC(C)=C[C@H]1c1c(OC(C)=O)cc(CCCCC)cc1OC(C)=O [ALL00142, CBD Diacetate]
Reply: 98%

Task item: // % Di-prodrug at time (h) lookup, key: C=C(C)[C@@H]1CCC(C)=C[C@H]1c1c(OC(=O)OC)cc(CCCCC)cc1OC(=O)OC [ALL00143, CBD Bis(Methyl Carbonate)]
Reply: 82%

Task item: // % Di-prodrug at time (h) lookup, key: C=C(C)[C@@H]1CCC(C)=C[C@H]1c1c(OC(=O)CCN(C)C)cc(CCCCC)cc1OC(=O)CCN(C)C [ALL00101, CBD bis(3-(dimethylamino)propionate)]
Reply: 75%

Task item: // % Di-prodrug at time (h) lookup, key: C=C(C)[C@@H]1CCC(C)=C[C@H]1c1c(OC(=O)COCCOCCOCCOC)cc(CCCCC)cc1OC(=O)COCCOCCOCCOC [ALL00132, CBD di(3,6,9,12-tetraoxatridecanoate)]
Reply: 28%

====

Task for the reader: assign each of the following compounds its reported % mono-prodrug at time (h).
# assay-comment: Plasma stability of cannabidiol prodrugs (bioconversion to parent drug)
# Assay type: in vitro ADME
# experimental-conditions: Table 20; di-prodrug in plasma, mono-prodrug formed; 2 h
Kindly answer with a numeric value in %, unit omitted.

Task item: // % mono-prodrug at time (h) lookup, key: C=C(C)[C@@H]1CCC(C)=C[C@H]1c1c(OC(=O)CO)cc(CCCCC)cc1OC(=O)CO [ALL00147, CBD Diglycolate]
Reply: 0

Task item: // % mono-prodrug at time (h) lookup, key: C=C(C)C1CCC(C)=CC1c1c(OC(=O)CN(C)C)cc(CCCCC)cc1OC(=O)CN(C)C (stereo not shown) [ALL00105, CBD bis(N,N-dimethylglycinate)]
Reply: 0

Task item: // % mono-prodrug at time (h) lookup, key: C=C(C)C1CCC(C)=CC1c1c(OC(=O)COCCOCCOC)cc(CCCCC)cc1OC(=O)COCCOCCOC (stereo not shown)
Reply: 1

Task item: // % mono-prodrug at time (h) lookup, key: C=C(C)[C@@H]1CCC(C)=C[C@H]1c1c(OC(=O)COCCOCCOCCOC)cc(CCCCC)cc1OC(=O)COCCOCCOCCOC [ALL00132, CBD di(3,6,9,12-tetraoxatridecanoate)]
Reply: 44
